All values here come from PubChem BioAssay AID1963451.

Test system: 521955-158-R6-J3-PDC complex spheroid growth, % test/control
protocol-details: Anticancer human tumor 521955-158-R6-J3-PDC patient-derived pancreatic carcinoma cell line growth inhibition [Asc]
assay-setup: second compound 0.0316 µM; first compound 0.316 µM; active compounds read low
Give measured viability, T/C for each item. Keep answers brief.
Write the number in % without appending the unit.

Request the reported viability, T/C associated with O=C(c1ccc(F)c(F)c1Nc1ccc(I)cc1F)N1CC(O)([C@@H]2CCCCN2)C1 + Cc1c(S(C)(=O)=O)c(-c2cc(F)cc(N3CCN(c4ccc(NS(=O)(=O)c5ccc(NC(CCN6CCC(C(=O)OCCCP(=O)(O)O)CC6)CSc6ccccc6)c(S(=O)(=O)C(F)(F)F)c5)cc4)CC3)c2)c(-c2ccc(Cl)cc2)n1C(C)C
42.2

Would you kindly repeat that for C=C(F)C(=O)N1CCN(c2nc(OCC3CCCN3C)nc3c2CCN(c2cccc4cccc(Cl)c24)C3)CC1CC#N (stereo unspecified) + Cc1c(S(C)(=O)=O)c(-c2cc(F)cc(N3CCN(c4ccc(NS(=O)(=O)c5ccc(NC(CCN6CCC(C(=O)OCCCP(=O)(O)O)CC6)CSc6ccccc6)c(S(=O)(=O)C(F)(F)F)c5)cc4)CC3)c2)c(-c2ccc(Cl)cc2)n1C(C)C ?
73.5

Would you kindly repeat that for CNC(C)C(=O)NC1CN(S(=O)(=O)c2cccc(S(=O)(=O)N3CCC4CCC(C(=O)NC(c5ccccc5)c5ccccc5)N4C(=O)C(NC(=O)C(C)NC)C3)c2)CCC2CCC(C(=O)NC(c3ccccc3)c3ccccc3)N2C1=O (stereo unspecified) + Cc1c(S(C)(=O)=O)c(-c2cc(F)cc(N3CCN(c4ccc(NS(=O)(=O)c5ccc(NC(CCN6CCC(C(=O)OCCCP(=O)(O)O)CC6)CSc6ccccc6)c(S(=O)(=O)C(F)(F)F)c5)cc4)CC3)c2)c(-c2ccc(Cl)cc2)n1C(C)C ?
67.3

Would you kindly repeat that for O=C(c1cc(Cc2n[nH]c(=O)c3ccccc23)ccc1F)N1CCN(C(=O)C2CC2)CC1 + CNC(C)C(=O)NC1CN(S(=O)(=O)c2cccc(S(=O)(=O)N3CCC4CCC(C(=O)NC(c5ccccc5)c5ccccc5)N4C(=O)C(NC(=O)C(C)NC)C3)c2)CCC2CCC(C(=O)NC(c3ccccc3)c3ccccc3)N2C1=O ?
87.7

Would you kindly repeat that for COc1c(OCCCN2CCOCC2)ccc2c3n(c(=NC(=O)c4cnc(N)nc4)nc12)CCN3 + Cc1c(S(C)(=O)=O)c(-c2cc(F)cc(N3CCN(c4ccc(NS(=O)(=O)c5ccc(NC(CCN6CCC(C(=O)OCCCP(=O)(O)O)CC6)CSc6ccccc6)c(S(=O)(=O)C(F)(F)F)c5)cc4)CC3)c2)c(-c2ccc(Cl)cc2)n1C(C)C ?
46.7

Would you kindly repeat that for COc1c(OCCCN2CCOCC2)ccc2c3n(c(=NC(=O)c4cnc(N)nc4)nc12)CCN3 + CNC(C)C(=O)NC1CN(S(=O)(=O)c2cccc(S(=O)(=O)N3CCC4CCC(C(=O)NC(c5ccccc5)c5ccccc5)N4C(=O)C(NC(=O)C(C)NC)C3)c2)CCC2CCC(C(=O)NC(c3ccccc3)c3ccccc3)N2C1=O ?
41.9

----------
System: 521955-158-R6-J3-PDC complex spheroid growth, % test/control
protocol-details: Anticancer human tumor 521955-158-R6-J3-PDC cell line growth inhibition [Asc];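 also: spheroids exposed to compounds for 7 days; 100% = DMSO vehicle control wells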
assay-setup: second compound 0.00316 µM; first compound 3.16 µM; active compounds read low
Give measured viability, T/C for each item. Keep answers brief.

Request the reported viability, T/C associated with O=C(c1cc(Cc2n[nH]c(=O)c3ccccc23)ccc1F)N1CCN(C(=O)C2CC2)CC1 + CNC(C)C(=O)NC1CN(S(=O)(=O)c2cccc(S(=O)(=O)N3CCC4CCC(C(=O)NC(c5ccccc5)c5ccccc5)N4C(=O)C(NC(=O)C(C)NC)C3)c2)CCC2CCC(C(=O)NC(c3ccccc3)c3ccccc3)N2C1=O
155%

Would you kindly repeat that for C=C(F)C(=O)N1CCN(c2nc(OCC3CCCN3C)nc3c2CCN(c2cccc4cccc(Cl)c24)C3)CC1CC#N (centres undefined) + CNC(C)C(=O)NC1CN(S(=O)(=O)c2cccc(S(=O)(=O)N3CCC4CCC(C(=O)NC(c5ccccc5)c5ccccc5)N4C(=O)C(NC(=O)C(C)NC)C3)c2)CCC2CCC(C(=O)NC(c3ccccc3)c3ccccc3)N2C1=O ?
76.8%

Would you kindly repeat that for C#Cc1c(F)ccc2cc(O)cc(-c3ncc4c(N5CC6CCC(C5)N6)nc(OCC56CCCN5CC(F)C6)nc4c3F)c12 (centres undefined) + CNC(C)C(=O)NC1CN(S(=O)(=O)c2cccc(S(=O)(=O)N3CCC4CCC(C(=O)NC(c5ccccc5)c5ccccc5)N4C(=O)C(NC(=O)C(C)NC)C3)c2)CCC2CCC(C(=O)NC(c3ccccc3)c3ccccc3)N2C1=O ?
36.3%

Would you kindly repeat that for C=CC(=O)N1CCN(c2nc(=O)n(-c3c(C)ccnc3C(C)C)c3nc(-c4c(O)cccc4F)c(F)cc23)C(C)C1 (centres undefined) + CNC(C)C(=O)NC1CN(S(=O)(=O)c2cccc(S(=O)(=O)N3CCC4CCC(C(=O)NC(c5ccccc5)c5ccccc5)N4C(=O)C(NC(=O)C(C)NC)C3)c2)CCC2CCC(C(=O)NC(c3ccccc3)c3ccccc3)N2C1=O ?
98.8%
